Target: MAPKAPK2 (MK-2) (Homo sapiens)
Sequence (P49137 whole entry, species assumed): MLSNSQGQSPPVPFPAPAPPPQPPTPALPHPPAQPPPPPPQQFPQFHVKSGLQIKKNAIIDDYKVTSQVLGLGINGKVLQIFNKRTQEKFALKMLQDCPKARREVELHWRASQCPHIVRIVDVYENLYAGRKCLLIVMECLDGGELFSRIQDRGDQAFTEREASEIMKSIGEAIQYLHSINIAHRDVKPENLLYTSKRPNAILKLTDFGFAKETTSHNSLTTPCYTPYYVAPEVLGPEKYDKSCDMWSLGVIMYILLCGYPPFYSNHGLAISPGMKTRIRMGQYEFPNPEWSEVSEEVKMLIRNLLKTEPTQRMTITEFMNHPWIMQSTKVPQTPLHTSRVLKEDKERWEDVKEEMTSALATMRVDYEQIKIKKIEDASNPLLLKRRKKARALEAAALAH
Assay: Determination of MK-2 IC50 (HSP-peptide phosphorylation, anion exchange resin capture assay)
Format: biochemical
Conditions: Table 2, pyrazolylpyrazole MK-2 inhibitors; read-out: MK-2 Avg. IC50
Test Readout: IC50 (µM)
Numbers only, in µM.

# count of solved cases: 2
{"Molecule": "O=C(O)c1nn(C2CCN(C(=O)OCc3ccccc3)CC2)c2c1CCc1c-2cnn1C(c1ccccc1)(c1ccccc1)c1ccccc1 [Example 19]", "Target Or Test System": "MAPKAPK2 (MK-2) (Homo sapiens)", "Reading Unit": "µM", "IC50": 46.5}
{"Molecule": "O=C(O)c1c2c(nn1CCCNCCc1ccc(Br)cc1)-c1cn[nH]c1CC2 [Example 3]", "Target Or Test System": "MAPKAPK2 (MK-2) (Homo sapiens)", "Reading Unit": "µM", "IC50": 2.23}

Sample O=C(O)c1[nH]nc2c1CCc1[nH]ncc1-2 [Example 45] ; IC50 observed: 188

Where do these numbers come from? They come from patent US20040127492A1.
